Catalogue of compounds with associated activation
- System: Galanin receptor type 2 (Homo sapiens)
- Method Description: GALR2 agonists, retest of hits, confirmation, cell-based (AID 864);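 further: 0% = buffer-only vehicle wells and 100% = full reference agonist response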
- Condition Context: GALR2-expressing cells, agonist activation; at 5.6 µM; hits give high values
The other results are listed elsewhere or left out.
Kindly answer with a numeric value in %, unit omitted.

Cc1ccc(CCC(=O)Nc2ncc(Cc3cc(Cl)ccc3Cl)s2)o1 : 7.28
O=C1COc2ccc(NC(=O)N3CCN(c4ccc(F)cc4)CC3)cc2N1 : -0.98
C=CCn1c(Oc2ccc(C(=O)OC)cc2)nc2c1c(=O)n(C)c(=O)n2C : 0.25
Fc1ccc(N2N=C(c3cccs3)CC2c2ccco2)c(F)c1 (configuration not stated) : 1.22
CC(=O)N(Cc1cccs1)C1CCOC(C)(C)C1 (configuration not stated) : -1
COCCN(CCOC)S(=O)(=O)c1ccc(C(=O)Nc2nc3c(s2)CCc2ccccc2-3)cc1 : 5.93
OC(COc1cccc2ccccc12)CN1CCN(c2ccccn2)CC1 (configuration not stated) : -0.28
CC(=O)Oc1ccc(C(C)=O)c2c1OCCO2 : -0.99

In plain terms, CCOc1ccc2nc(Nc3nc4ccc(NC(C)=O)cc4s3)sc2c1 has a documented activation of 27.5

Entry Cc1ccc(Cc2c(C)nc3nc(SCC(=O)NCCN4CCOCC4)nn3c2C)cc1 , activation reported as -0.11

Recorded result, COC(=O)c1ccc(NC(=O)C(C)N2C(=O)c3ccccc3C2=O)cc1 (configuration not stated) , activation: -0.71

The compound listed as CC1(C)CC(=O)C=C(NCCN2CCNCC2)C1 shows activation equal to -1.05

Per the record, C=CCN(CC=C)S(=O)(=O)c1ccc(C(=O)Nc2nc3c(s2)CCc2ccccc2-3)cc1 has activation of 2.82

activation reported for this compound CC/C(C)=N/Nc1nc2sc3c(c2c(=O)[nH]1)CC(C)(C)OC3 : -0.45

----------
- System: Galanin receptor type 2 (Homo sapiens) (UniProt O43603)
- Sequence (O43603 whole entry, looked up): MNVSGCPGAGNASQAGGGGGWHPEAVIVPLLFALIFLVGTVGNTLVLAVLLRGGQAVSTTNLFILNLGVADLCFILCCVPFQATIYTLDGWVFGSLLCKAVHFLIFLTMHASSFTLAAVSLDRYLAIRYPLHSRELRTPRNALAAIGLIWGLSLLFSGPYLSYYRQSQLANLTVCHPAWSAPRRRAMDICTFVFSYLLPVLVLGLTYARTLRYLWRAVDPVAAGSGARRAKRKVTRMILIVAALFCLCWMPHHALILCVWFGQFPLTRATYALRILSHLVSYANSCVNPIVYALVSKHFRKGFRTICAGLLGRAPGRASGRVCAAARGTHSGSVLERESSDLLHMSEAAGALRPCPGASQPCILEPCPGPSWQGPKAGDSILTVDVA
- Method Description: GALR2 agonists, retest of hits, confirmation, cell-based (AID 864);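 further: 0% = buffer-only vehicle wells and 100% = full reference agonist response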
- Condition Context: GALR2-expressing cells, agonist activation; at 5.6 µM; hits give high values
The other results are listed elsewhere or left out.
Entries annotated with measured activation
Kindly answer with a numeric value in %, unit omitted.

Look over these answered cases.
O=C(NC(=S)Nc1ccc(NC(=O)c2cccs2)cc1)c1ccc([N+](=O)[O-])cc1 : -0.89
COc1cc(SC#N)ccc1N=Cc1c(C)[nH]n(-c2ccc(C)cc2)c1=O : 7.97

# evaluate next
Please fill in: activation reported for Cc1csc(NC(=O)c2ccc(-c3ccc(Cl)cc3Cl)o2)n1 = -0.78

Values were extracted from PubChem BioAssay AID864.
